Catalogue of SGCB cell-surface expression functional score (log10) values
B1: library; numbered along this chain (parent)
chain: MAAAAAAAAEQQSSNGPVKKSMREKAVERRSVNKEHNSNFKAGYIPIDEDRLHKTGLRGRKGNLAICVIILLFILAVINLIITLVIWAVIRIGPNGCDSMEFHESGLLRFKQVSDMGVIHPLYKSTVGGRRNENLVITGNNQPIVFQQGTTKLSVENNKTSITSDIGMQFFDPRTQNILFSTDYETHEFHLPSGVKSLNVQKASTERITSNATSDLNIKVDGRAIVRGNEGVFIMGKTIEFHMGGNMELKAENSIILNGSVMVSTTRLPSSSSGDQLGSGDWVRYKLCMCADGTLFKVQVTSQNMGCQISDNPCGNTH

Variants of: B1
Test: SGCB cell-surface expression functional score (HA stain, bin4 vs bin1, normalised to synonymous) (log10 ratio); higher = more cell-surface SGCB (functional)
Outcome Measure: SGCB cell-surface expression functional score (log10)

Variant String: C288K
Value: -1.15
//
Variant String: E101I
Value: -0.3
//
Variant String: P269S
Value: 0.18
//
Variant String: A6T
Value: 0.07
//
Variant String: I144L
Value: -0.46
//
Variant String: Q303W
Value: -0.98
//
Variant String: E252Q
Value: 0.64
//
Variant String: V18W
Value: 0.55
//
Variant String: G315H
Value: 0.04
//
Variant String: I239Q
Value: -1.16
//
Variant String: T238H
Value: 0.24
//
Variant String: R130A
Value: 0.27
//
Variant String: N158P
Value: -0.76
